Give IC50 (neutralization) for every item shown.
- ASSAYED_TARGET: LASV A19 (lineage II) glycoprotein (Lassa virus, strain A19)
- ASSAY_PROTOCOL: cell-based or functional assay

For the binder 25.6A (antibody, V domains shown) VH: QVQLQESGGGLVKAGGSLRLSCAASGFMFERYSLHWVRQTPGKGLEWVSSISSLSGSHINYADSVKGRFTISRDNAKNSLSLQMNSLRVEDTAIYYCARDRRSGSSPVPLDVWGQGTTVTVSS VL: DLPVLTQPASVSGSPGQSITISCTGTSSDVGAYNYVSWYQQHPGKAPKLIIYEVKIRPSGVSNRFSGSKSGNTASLTISGLQAEDEADYFCSSYSTNSPWVFGGGTKVTVLR , give its measured IC50 (neutralization) value.
0.483 µg/mL

For the binder 36.9F (antibody, V domains shown) VH: EVQLVQSGGGLVKAGGSLKLSCGASGFTFSSYSMSWVRQAPGKGLEWVSYISSGGSSIHYADSVKGRFTISRDNAKNSLYLQMKNLRVDDTGRYYCVRDPRSGISGRYGMDVWGQGTTVTVSS VL: DIVMTQSPDSLAVSLGERATINCKSSQTVLFTSYYVAWYQQKPGQPPKLLFSGASSRESGVPDRFSAGGSGTDFYLTINSLQAEDVADYYCQQYHTPPFTFGGGTKLEIRR , give its measured IC50 (neutralization) value.
13 µg/mL

For the binder 10.4B (antibody) VH: DQVQLVQSGGGVVQPGRSLRVSCVTSGFNFRAYGMHWVRQIPGKGLEWVADIWSAETNRHYADSVKGRFTISRDNSKSTLYLQMNSLRAEDTGVYFCAKARPGYDYVVDLWGQGTLVIVSSASTKGPSVFPLAPCSRSTSGGTAALGCLVKDYFPEPVTVSWNSGALTSGVHTFPAVLQSSGL VL: DEIVLTQSPSSLSASVGDRVTITCRASRDINTYLGWFQQRPGKAPKSLIYGASNLQNGVPSRFSGSGSGTYFTLTINGLQTEDFATYYCQQYSIYPLSLGGGTKADMKRTVAAPSVFIFPPSDEQLKSGTASVVCLLNNFYPREAKVQWKVDNALQSGNSQESVTEQDSKDSTYSLSSTLTLSKADYEKHKVYACEVTHQGLSSP , give its measured IC50 (neutralization) value.
> 20 µg/mL

For the binder 37.7H (antibody, V domains shown) VH: EVQLVQSGGGLVKAGGSLRLSCAASGFTFSTYSMNWIRQAPGKGLEWVASISSRSGSHINYVDSVKGRFTISRDNARDLLYLQMNSLRVDDSALYYCARDRRSGTSPLPLDVWGQGTTVTVFS VL: DQSALTQPASVSGSPGQSITISCTGTGSDIGGYNFVSWYQQYPGKAPKLIIYEVRIRASGVSNRFSGSKSGNTASLTISGLQAEDEADYYCNSYSIHSPWVFGGGTKLTVLR , give its measured IC50 (neutralization) value.
0.255 µg/mL

For the binder 37.2G (antibody, V domains shown) VH: EVQLVESGGGLVKPGGSRRLSCAASGFTFSRDTMTWVRQAPGKGLEWVASISSGSSDINYADSVKGRFTISRDNGKNSLYLHMNSLRADDTAIYYCARDPRSGISGRYGMDVWGQGTTVTVSS VL: DIVLTQSPGTLSLSPGERATLSCRASQSVNSIFLAWYQQKPGQAPRLLIYGASSRATGIPDRFSGSGSGTDFTLTISRLEPEDFAVYYCQQYHSSPKLTFGGGTKVEIKR , give its measured IC50 (neutralization) value.
1.1 µg/mL
